B1: HDV Ribozyme (parent)
chain: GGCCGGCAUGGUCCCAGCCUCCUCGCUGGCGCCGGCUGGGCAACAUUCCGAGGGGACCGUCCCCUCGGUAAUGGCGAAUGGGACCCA

Variants of: B1
Method Description: self-cleavage, relative activity (ratio to wild type); higher = more cleavage; co-transcriptional
// reported self-cleavage per item
Write the number on its own, no unit after it.

Look over these answered cases.
C64A G80U: 0.294
G40C C64U: 0.223

# self-cleavage of C4G A51G = 0.554

# self-cleavage of C4U G80A = 0.242
